# assay.protocol: NCI Yeast Anticancer Drug Screen. Data for the rad14 strain (AID 159)
# condition.label: S. cerevisiae rad14 strain growth inhibition; at 11.0 µM; active compounds read high
The panel holds about 79,000 compounds, 15% with a hit somewhere; the sample as a whole holds those more often.
Label scheme for growth inhibition: lower than 20% is f, 20% and above is t.

COc1cc(/C=C2\NC(=O)N(/C=C3\C(=O)Oc4ccccc4C3=O)C2=O)ccc1O    f
COC1=C(OC)C(=O)C(Sc2ccc3ccccc3c2)=CC1=O    t
CCOC(=O)C(Br)C(Br)c1ccccc1Cl (stereo not given)    t
CCOC(=N)c1ccc(O)c(OC)c1    f
O=C(O)C1CC(c2ccccc2)=NN1c1ccccc1 (stereo not given)    f

Input line: For this molecule, is measured growth inhibition 20% or higher? O=[N+]([O-])c1cc(Cl)cnc1Br
Output line: f

Input line: Is it the case that O=c1nc2n(Cc3ccccc3)c3ccccc3nc-2c(=O)[nH]1 has growth inhibition reaching or exceeding 20%?
Output line: f
